What TGI was measured for each of the following?
system: NCI/ADR-RES ovarian; test: NCI tumour cell line growth inhibition, 48 h

molecule	TGI
CC(=O)Nc1nc2c(=O)c3ccccc3sc2s1	> 100 µM
CCc1nc(N)nc(N)c1-c1ccc(N2CCOCC2)c(N=[N+]=[N-])c1	> 100 µM
CCOC(=O)c1c(C)n(-c2ccc(C)cc2)c(=O)c2ccccc2c(=O)c2c(=O)ccc(=O)c1=2	58.4 µM
Nc1nccc(NCC2(CO)CC(CCc3ccccc3)C2)n1 (stereo not given)	75.7 µM
COc1ccc(OC/C(N)=N/NC(=O)c2ccncc2)cc1	> 100 µM
COC(=O)C(C)NP(=O)(OCc1cccc(Cn2cnc3c(N)ncnc32)c1)Oc1ccccc1 (stereo not given)	> 100 µM
C=C1CC[C@@H]2[C@](C)(COC(=O)CCC(=O)OC)CCC[C@@]2(C)[C@@H]1CCC1=CC(=O)OC1	> 100 µM
COC(=O)/C(=N\N)C(C(=O)C(=O)Nc1cc(Cl)ccc1Cl)c1nc2ccc([N+](=O)[O-])cc2[nH]c1=O (stereo not given)	> 100 µM
Cc1cccc(C)c1NC(=O)C(=O)CC(=O)c1sc(Nc2c(C)cccc2C)nc1C	> 100 µM

Please turn your attention to the following entry.
The reported value for Cc1ccc2c(c1C)CC1(Cc3ccc(C)c(C)c3C1=O)C2=O (stereo not given) in terms of TGI is > 100 µM

---

test system: MALME-3M melanoma; assay: NCI tumour cell line growth inhibition, 48 h
What TGI was measured for each of the following?
Numbers only, in µM.

Below, each entry is followed by its recorded TGI result.
moleculeSmiles	readoutUnits	recordedResult
O=C(CCN1CCOCC1)Nc1ccc(Cn2nnc3c2C(=O)c2nnn(Cc4ccc(NC(=O)CCN5CCOCC5)cc4)c2C3=O)cc1	µM	0.747
C[C@H]1CCC/C=C/[C@@H]2C[C@H](OC(=O)CN(C)C)C[C@H]2[C@H](O)/C=C/C(=O)O1	µM	0.15
Cc1cnc2[nH]c(-c3cccc4ccccc34)cc(=O)c2c1	µM	0.000989

Please turn your attention to the following entry.
The reported value for C=CCN1C(=O)NC(=O)/C(=C/c2c3ccccc3cc3ccccc23)C1=O in terms of TGI is 39.3

---

What GI50 was measured for each of the following?
tested on: A549 NSCLC; assay: NCI tumour cell line growth inhibition, 48 h

Below, each entry is followed by its recorded GI50 result.
molecule	subjectOfTest	propertyMeasured	recordedResult
COc1cc2c(cc1C)NC(=O)/C2=C\c1ccc(Oc2ccccc2)cc1	A549 NSCLC	GI50	14.7 µM
COC(=O)C(C)NP(=O)(OCc1cccc(Cn2cnc3c(N)ncnc32)c1)Oc1ccccc1 (stereo unspecified)	A549 NSCLC	GI50	> 100 µM
CCOC(=O)C#Cc1c(C(=O)OCC)nnn1[C@@H]1O[C@H](COC)[C@@H](OC)[C@H]1OC	A549 NSCLC	GI50	20.9 µM
O=[N+]([O-])c1ccc(N/N=C\c2cc(Br)ccc2O)nc1	A549 NSCLC	GI50	2.84 µM
N#C[Se]CCN1C(=O)c2ccccc2C1=O	A549 NSCLC	GI50	2.55 µM

Please turn your attention to the following entry.
The reported value for O=C1NC(=O)C2C3C=CC(C12)C1C2C(=O)NC(=O)C2C31 (stereo unspecified) in terms of GI50 is 172 µM

meta.source: PubChem BioAssay (NCI)
